Literature survey of IC50 (system: Tyrosine-protein kinase JAK2 (Homo sapiens)).
The response must be a number in nM with no trailing unit.

Field: example entries. Status: answers known.
| compound | system | measurement-name | readout-number |
| --- | --- | --- | --- |
| O=C(CCCn1cc(-c2ncnc3[nH]ccc23)cn1)NO | Tyrosine-protein kinase JAK2 (Homo sapiens) | IC50 | 3560 |
| O=C(Nc1nc2cccc(-c3ccc(C(=O)N4CC(F)(F)C4)cc3)n2n1)C1CC1 | Tyrosine-protein kinase JAK2 (Homo sapiens) | IC50 | 139 |
| COc1cc(-c2nccc3nc(Nc4cccc5c4ccn5C)nn23)cc(OC)c1OC | Tyrosine-protein kinase JAK2 (Homo sapiens) | IC50 | 705 |
| CC(=O)Nc1ccc(-c2ccnc(Nc3cccc(N4CCOCC4)c3)n2)cc1 | Tyrosine-protein kinase JAK2 (Homo sapiens) | IC50 | 19.6 |
| N#CCNC(=O)c1ccc(-c2cccc3nc(NC(=O)C4CC4)nn23)cc1 | Tyrosine-protein kinase JAK2 (Homo sapiens) | IC50 | 299 |

Give me measured IC50, please, for this compound: CC(=O)Nc1ccc(-c2ccnc(Nc3ccccc3)n2)cc1
27.4

Answer with the recorded IC50 for the compound listed here: Cc1nc(-c2ccccc2Nc2nc(Nc3ccc(CN4CCN(C)CC4)cc3)ncc2Cl)n[nH]1
130

Consider the compound Cc1cc(Nc2nc(N3CCN(C(=O)Cc4ccc(F)cc4F)CC3)nn3cccc23)n[nH]1 and give its recorded IC50.
2.4

Tell us which IC50 value is on record for CN(c1ncnc2[nH]ccc12)N1CCCC(C(=O)NCC#N)C1 (stereo not given)
11.6

Determine from records and report IC50 for Cc1cc(Nc2ncc(C)c(N3CC(CC#N)(OC4CC5(CC5)C4)C3)n2)sn1
8

Look up and state reported IC50 for Cc1nc2cc(Nc3cc(NC4CCN(c5ccc(C#N)cn5)CC4)c(C(N)=O)cn3)ccc2o1
400

Return the recorded IC50 value; entry: Fc1cccc(Cl)c1-c1nc2c3ccccc3c3ccccc3c2[nH]1
900

Quickly give me recorded IC50 for CN1CCN(c2ccc(-c3cnc4cccc(-c5cc(F)c(CN6CCOCC6)c(F)c5)c4n3)cc2)CC1
4.3

Please report IC50 for the following compound: CNc1nc2c(cc(-c3nnnn3C3CC3)n2C[C@H](O)CO)c2c1ncn2C
7.8

Tell us which IC50 value is on record for Cc1cc(Nc2ncc(C)c(N3CC4CCCC(C3)N4CCC#N)n2)sn1
0.98

Read off the recorded IC50 for CC1CCCC(n2c(=O)[nH]c3cnc4[nH]ccc4c32)C1 (stereo not given)
23

----------
// read-out IC50, gathered for Tyrosine-protein kinase JAK2 (Homo sapiens, UniProt O60674) from published studies

| compound | system | IC50 |
| --- | --- | --- |
| Cn1c(-c2cn(-c3cccc(C(=O)O)c3)nn2)nc(-c2ccc(F)cc2)c1-c1ccncc1 | Tyrosine-protein kinase JAK2 (Homo sapiens, UniProt O60674) | > 100000 nM |
| Cc1cnc(Nc2ccc(-n3ccnc3)cc2)nc1-c1cc2c(o1)CCN(S(C)(=O)=O)C2 | Tyrosine-protein kinase JAK2 (Homo sapiens, UniProt O60674) | 10.8 nM |
| COc1cc(Nc2ncc(F)c(-c3cc4c(o3)CCN(S(C)(=O)=O)C4)n2)cc(OC)c1OC | Tyrosine-protein kinase JAK2 (Homo sapiens, UniProt O60674) | 9.4 nM |
| C[C@@H]1CCN(C(=O)CC#N)C[C@@H]1n1c(=O)[nH]c2cnc3[nH]ccc3c21 (racemic) | Tyrosine-protein kinase JAK2 (Homo sapiens, UniProt O60674) | 2.6 nM |
| COc1ccccc1Nc1cc(Nc2ccc(CC(=O)O)cn2)ncc1C(N)=O | Tyrosine-protein kinase JAK2 (Homo sapiens, UniProt O60674) | 11 nM |
| CC(=O)Nc1ccc(-c2nc(Nc3ccc(OCCCCCC(=O)NO)cc3)ncc2C)cc1 | Tyrosine-protein kinase JAK2 (Homo sapiens, UniProt O60674) | 25.6 nM |

Find IC50 for N#Cc1ccc2ncn(-c3ncc4[nH]c(=O)n(Cc5cccc(F)c5F)c4n3)c2c1 on Tyrosine-protein kinase JAK2 (Homo sapiens, UniProt O60674) and write it down.
Sequence (O60674 whole entry): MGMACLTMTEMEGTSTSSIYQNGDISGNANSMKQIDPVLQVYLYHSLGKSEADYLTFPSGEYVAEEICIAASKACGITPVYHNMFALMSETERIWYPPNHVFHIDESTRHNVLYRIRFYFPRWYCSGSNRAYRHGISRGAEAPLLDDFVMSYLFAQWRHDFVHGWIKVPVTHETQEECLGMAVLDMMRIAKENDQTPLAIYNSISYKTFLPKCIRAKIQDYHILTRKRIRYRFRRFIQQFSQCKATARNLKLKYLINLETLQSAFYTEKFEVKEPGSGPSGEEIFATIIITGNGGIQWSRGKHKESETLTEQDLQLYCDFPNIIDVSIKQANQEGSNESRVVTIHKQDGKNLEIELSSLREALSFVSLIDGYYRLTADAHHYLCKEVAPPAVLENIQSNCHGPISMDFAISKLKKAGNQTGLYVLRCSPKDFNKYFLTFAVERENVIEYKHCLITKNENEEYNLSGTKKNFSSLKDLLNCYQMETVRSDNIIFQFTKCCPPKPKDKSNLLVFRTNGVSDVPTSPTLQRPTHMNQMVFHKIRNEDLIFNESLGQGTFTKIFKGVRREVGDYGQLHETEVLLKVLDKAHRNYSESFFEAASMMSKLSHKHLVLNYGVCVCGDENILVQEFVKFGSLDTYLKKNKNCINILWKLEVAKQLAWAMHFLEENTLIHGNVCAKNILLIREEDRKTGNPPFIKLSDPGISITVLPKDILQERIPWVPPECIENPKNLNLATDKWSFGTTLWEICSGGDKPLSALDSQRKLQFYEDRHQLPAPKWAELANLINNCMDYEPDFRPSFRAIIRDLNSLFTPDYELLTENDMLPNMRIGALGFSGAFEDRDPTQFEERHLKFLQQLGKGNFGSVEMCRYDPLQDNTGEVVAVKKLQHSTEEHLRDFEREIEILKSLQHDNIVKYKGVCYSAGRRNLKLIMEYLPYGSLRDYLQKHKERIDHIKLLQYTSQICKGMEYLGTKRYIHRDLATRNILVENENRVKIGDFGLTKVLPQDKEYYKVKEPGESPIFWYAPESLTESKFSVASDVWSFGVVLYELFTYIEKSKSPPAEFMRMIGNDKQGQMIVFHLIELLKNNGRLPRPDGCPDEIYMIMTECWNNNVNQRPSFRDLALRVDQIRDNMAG
270 nM

Please tell me the measured IC50 for COc1cccc(Nc2cc(Nc3ccccc3Cl)c(C(N)=O)cn2)n1 ; system: Tyrosine-protein kinase JAK2 (Homo sapiens, UniProt O60674).
76 nM

State IC50 (Tyrosine-protein kinase JAK2 (Homo sapiens, UniProt O60674)) of COCNC(=O)C1CCCN(N(C)c2ncnc3[nH]ccc23)C1 (centres undefined) .
148 nM
